Reference source for all entries: paper PMC11257983

B1: Flag-CNK^2–549 [Drosophila] / GST-HYP [Drosophila] (parent complex)
chain 1: AYINIAEWTPDQVTDWIKGLDESMKGYLYEFSKQEIGGRALLNIRPYELENLGMLRIGHQEIVLEAVENLRNFHYHLKNDNLQFMALHVATAAKNLHRELARNHAESTKIDTRILHDITRTIATLKPLVGSLERTPFRKQEMYREYCGNVLKCGLELATIAHRDRFALQPVPAIRQSAERLENLANFVIQDISDPMVLQPASLNLVTLKKRESELGFNIESSYNGIHRVTDIKYNSPAHNSGKIEDGDEIVQINYQTVVGWQHRTVLEHLREALPDVVLTVKKRPKHTKMFGQIYMQPYRLPSKKRNMAARWAAQMPSPRAAFLTLDTEQLATGGTGSAVPDPSKSLSSEKREVLTKANPVSSASDSDSSCSDIPTPTDPKLAAREIRLYYPKPRALLQRRNTICGCEYLSLKNSDLVVPSWHERKPGIGSPTNCDPGSPSIRDKSISFGYGLEMAARPTTCIGIAGDTSTDKARRMFHEARKLKQLTEDSQREFLVDRYKPGVSKVVRFDAKEDYVMKNEKFICNVENTILETFEPIPFADEGDEDA
chain 2: MGEETINSTQNKTRTKTTRPKAVYLWTVSDVLKWYRRHCGEYTQYEQLFAQHDITGRALLRITDSSLQRMGVTDNRDREAIWREIVKQRLKTDIMEIRDMERLNIY

Variants of: B1
Test: GST pull-down, immunoblot quantification; S2 cells; GST-HYP, V5-KSR, Myc-MEK co-expressed; anti-Flag (CNK) blot; parent: 1
Endpoint: ratio to parent

Here are 3 variants together with their reported answers.
chain 1 Q199A; 0.87
chain 1 D194K, chain 1 V197E; 0.27
chain 1 V197E; 0.24

a = chain 1 M196E
b = chain 1 S193A
c = chain 1 D194K
q: Output the entries ranked by ratio to parent from maximum down to minimum. // format: requested-order list of labels
a: b, a, c
